Provenance of the data: patent US20250275988A1

Field: Density. Provide a value for each of the compounds that follow.
- EXPERIMENTAL_PROTOCOL: density of materials
- Format: physicochemical
- CONDITION_SET: Table 4
One number for each entry, in g/mL.

Take a look at these entries with their results.
compound="CCCCCCCCCCCCCCCCCCCCCC(=O)OCC(O)CO (centres unmarked) [Glyceryl behenate]" reported_endpoint=Density unit_of_measurement=g/mL test_result=0.942
compound="CCCCCCCCCCCCCCCCCC(=O)OCC(COC(=O)CCCCCCCCCCCCCCCCC)OC(=O)CCCCCCCCCCCCCCCCC [Glyceryl tristearate]" reported_endpoint=Density unit_of_measurement=g/mL test_result=0.862
compound=CCCCCCCCCCCCCCCCCCO reported_endpoint=Density unit_of_measurement=g/mL test_result=0.812
compound="CCCCCCCCCCCCCCCC(=O)OCC(COC(=O)CCCCCCCCCCCCCCC)OC(=O)CCCCCCCCCCCCCCC [Glyceryl tripalmitate]" reported_endpoint=Density unit_of_measurement=g/mL test_result=0.8752

Given CCCCCCCCCCCCCC(=O)OCC(COC(=O)CCCCCCCCCCCCC)OC(=O)CCCCCCCCCCCCC [Glyceryl trimyristate] , state its recorded Density.
0.885
